Data provenance is ChEMBL document CHEMBL1201862.

- System: TK-10
- protocolDetails: NCI tumour cell line growth inhibition, 48 h
Calls of active or inactive are those of the source. Rule as the data show it: active = GI50 up to about 1.1 µM and inactive = higher.
reportedEndpoint: GI50

1. COC(=O)C(=O)C(C(=O)C(=O)Nc1ccc(F)cc1)c1nc2ccc([N+](=O)[O-])cc2nc1O (stereo not given); > 100 µM (inactive)
2. NC(CC(O)(c1ccccc1)c1ccccc1)c1ccccc1S (stereo not given); 15.7 µM (inactive)
3. CCCCCCCC/C=C\CCCCCCC(F)C(=O)O (stereo not given); > 12.5 µM (inactive)
4. COc1cc(/C=C2\[C@H]3c4c(c(OC)c(C)c(OC)c4OC)C[C@@H](C(=O)N2Cc2ccccc2)N3C(=O)OC(C)C)c(OC)c(C)c1OC; 79.3 µM (inactive)
5. NC(=O)CN1CC(C2=C(O)CN(CC(N)=O)C2=O)=CC1=O; > 100 µM (inactive)

Look at this compound and give its reported GI50. O=CC(NC(=O)N(CCCl)N=O)C(O)C(O)C(O)CO (stereo not given)
> 1250 µM (inactive)

Next: C1CSCCSCCSCCSC1
> 100 µM (inactive)

Try this compound next: COC(=O)C(=O)C(C(=O)C(=O)Nc1ccc(OC)cc1[N+](=O)[O-])c1nc2ccc([N+](=O)[O-])cc2nc1O (stereo not given)
> 100 µM (inactive)

Lookup CCc1nnc2sc(-c3ccc(-c4ccc(Cl)cc4Cl)o3)nn12
43.7 µM (inactive)

Same thing, different compound: O=C(NNC(=S)Nc1ccccc1)c1nsc2ccccc12
41.3 µM (inactive)

====

- System: SF-539
- protocolDetails: NCI tumour cell line growth inhibition, 48 h
Activity calls are given as the source filed them. Cut-off read from the data, not from the text of the source: active = GI50 up to about 1.1 µM and inactive = higher.
Entries and their GI50

Below, 2 molecules whose answers are already recorded.
1. CC1CC(=O)C(CC(=O)O)C1C(C(=O)C(=O)Nc1c(C#N)cccc1[N+](=O)[O-])[N+](=O)[O-] (centres undefined); > 100 µM (inactive)
2. COc1cccc(-c2cc(O)c3cc(N4CCN(C)CC4)ccc3n2)c1; 0.557 µM (active)

# query: GI50 of entry O=C(O)c1cccc2c1/C(=N/Nc1ccccc1)CC2
> 100 µM (inactive)

Also C=C1[C@H](OCC(C)C)[C@@H](OCC(C)C)[C@@H](O)C(C)(C)/C=C/[C@H](C)C(=O)[C@@]2(O)C[C@H](C)[C@H](O)[C@@H]2[C@H]1OCC(C)C ?
2.83 µM (inactive)

====

- Test system: COLO 205
- protocolDetails: NCI tumour cell line growth inhibition, 48 h
Active and inactive are the calls of the source. No stated cut-off is given here; in the data, active = GI50 up to about 1.1 µM and inactive = higher.
GI50 values, listed per item

1) Nc1ncnc2c1ncn2C1C=CC(COS(N)(=O)=O)C1 (configuration not stated); 16.9 µM (inactive)
2) C=CCO/N=C/c1cc(/N=C(/S)c2ccoc2C)ccc1Cl; 12.4 µM (inactive)
3) CCOC(=O)C1C(=O)CC(C)(O)C(C(=O)OCC)C1c1ccc(N(C)C)cc1 (configuration not stated); > 100 µM (inactive)

Using the record for NC1CC(=O)c2c1sc(Cl)c2Cl (configuration not stated) , report its GI50.
> 100 µM (inactive)

Follow-up item: COC(=O)C(=O)C(C(=O)C(=O)Nc1ccc(OC)cc1[N+](=O)[O-])c1nc2ccc([N+](=O)[O-])cc2nc1O (configuration not stated)
> 100 µM (inactive)

Note, next up: CCC1c2[nH]c3ccccc3c2C[C@H]2C(=O)NC(Cc3ccccc3)C(=O)N12 (some centres not stated)
20.6 µM (inactive)

What would you report for O=C(Nc1nc(C23CC4CC(CC(C4)C2)C3)cs1)c1c(O)c2ccccc2[nH]c1=O ?
> 100 µM (inactive)

Please do the same for COc1ccc2c(O)c3[n+](cc2c1OC)CCc1cc2c(cc1-3)OCO2 as well.
> 100 µM (inactive)

How about this molecule: COC(=O)CCC(NC(=S)N/N=C(\C)c1ccco1)C(=O)OC (configuration not stated)
> 100 µM (inactive)

Query COC(=O)[C@@](C)(COC(=O)C(C)(C)C)NC(=O)OC(C)(C)C next
> 100 µM (inactive)

# iterate: O=C1CCCC/C1=C1/SC(=N/c2ccccc2)/C(=N\c2ccccc2)N1c1ccccc1
> 100 µM (inactive)

Next entry: C=CCOC1OC(CS(=O)(=O)O)C(O)C(O)C1O (configuration not stated)
> 100 µM (inactive)

Field entry: COC(=O)C1=COc2c(n(C)c3ccccc23)-c2ccccc21
> 100 µM (inactive)
